Tested on: IL-6
Experiment Notes: Bovine whole blood assay, IL-6
Format: cell-based
Assay Context: Bos taurus, fresh whole bovine blood, LPS 1 μg/mL
Description: (protected from light) for 30 minutes.
Catalogue of compounds with associated pIC50
Value format note: pIC50 is -log10 of concentration (mol/L); just state the number.

# annotated cases, reported pIC50 shown
{"Compound": "CCCNC[C@]1(O)[C@H](C)O[C@@H](O[C@H]2[C@H](C)[C@@H](O[C@@H]3O[C@H](C)C[C@H]4[C@H]3OC(C(F)(F)F)N4Cc3ccccc3)[C@](C)(O)C[C@@H](C)CN[C@H](C)[C@@H](O)[C@](C)(O)[C@@H](CC)OC(=O)[C@@H]2C)C[C@@]1(C)OC (stereo partly drawn) [Example A-28]", "Endpoint Result": 4.92}
{"Compound": "CCCNC[C@]1(O)[C@H](C)O[C@@H](O[C@H]2[C@H](C)[C@@H](O[C@@H]3O[C@H](C)C[C@H]4[C@H]3OC(C(F)(F)F)N4CC(C)C)[C@](C)(O)C[C@@H](C)CN[C@H](C)[C@@H](O)[C@](C)(O)[C@@H](CC)OC(=O)[C@@H]2C)C[C@@]1(C)OC (stereo partly drawn) [Example A-27]", "Endpoint Result": 6.00}

Continue with the next compound.
The compound CC[C@H]1OC(=O)[C@H](C)[C@@H](O[C@H]2C[C@@](C)(OC)[C@](O)(CNCCS(C)(=O)=O)[C@H](C)O2)[C@H](C)[C@@H](O[C@@H]2O[C@H](C)C[C@H]3[C@H]2OC(C(F)(F)F)N3C)[C@](C)(O)C[C@@H](C)CN[C@H](C)[C@@H](O)[C@]1(C)O (stereo partly drawn) [Example A-9] , tested on IL-6, showed pIC50 of 4.15

###

Test system: IL-1β
Experiment Notes: Bovine whole blood assay, IL-1β;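 further: compound concentration at which rising IL-1β release signals cytotoxicity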
Assay type: cell-based
Assay Context: overstimulation of IL-1β, perceived cellular toxicity concentration
Measured Parameter: IL-1β OS of LPS

# annotated cases, reported IL-1β OS of LPS shown
{"Compound": "CC[C@H]1OC(=O)[C@H](C)[C@@H](O[C@H]2C[C@@](C)(OC)[C@](O)(CNCCn3cncn3)[C@H](C)O2)[C@H](C)[C@@H](O[C@@H]2O[C@H](C)C[C@H]3[C@H]2OC(C(F)(F)F)N3C)[C@](C)(O)C[C@@H](C)CN[C@H](C)[C@@H](O)[C@]1(C)O (stereo partly drawn) [Example A-14]", "IL-1β OS of LPS": "40 µM"}
{"Compound": "CC[C@H]1OC(=O)[C@H](C)[C@@H](O[C@H]2C[C@@](C)(OC)[C@](O)(CNCCN3CCCCC3=O)[C@H](C)O2)[C@H](C)[C@@H](O[C@@H]2O[C@H](C)C[C@H]3[C@H]2OC(C(F)(F)F)N3C)[C@](C)(O)C[C@@H](C)CN[C@H](C)[C@@H](O)[C@]1(C)O (stereo partly drawn) [Example A-15]", "IL-1β OS of LPS": "40 µM"}

Continue with the next compound.
Entry under test: CCCNC[C@]1(O)[C@H](C)O[C@@H](O[C@H]2[C@H](C)[C@@H](O[C@@H]3O[C@H](C)C[C@H]4[C@H]3OC(C(F)(F)F)N4C)[C@](C)(O)C[C@@H](C)CN[C@H](C)[C@@H](O)[C@](C)(O)[C@@H](CC)OC(=O)[C@@H]2C)C[C@@]1(C)OC (stereo partly drawn) [Example A-1] . Its IL-1β OS of LPS was >500 µM
